Please go through the items and note down their relative viability.
system: SW 900; experiment: relative viability (nuclei count vs DMSO), 5 days (fraction); higher = more cells survive; details: first compound 4 µM

Below: 3 molecules and their reported relative viability.
Cc1sc2c(c1C)C(c1ccc(Cl)cc1)=N[C@@H](CC(=O)OC(C)(C)C)c1nnc(C)n1-2 [JQ1] + CC(=O)c1c(C)c2cnc(Nc3ccc(N4CCNCC4)cn3)nc2n(C2CCCC2)c1=O [Palbociclib] (partner 0.5 µM); 0.222
Cc1sc2c(c1C)C(c1ccc(Cl)cc1)=N[C@@H](CC(=O)OC(C)(C)C)c1nnc(C)n1-2 [JQ1] + Nc1ncn([C@H]2C[C@H](O)[C@@H](CO)O2)c(=O)n1 [Decitabine] (partner 2 µM); 0.235
Cc1sc2c(c1C)C(c1ccc(Cl)cc1)=N[C@@H](CC(=O)OC(C)(C)C)c1nnc(C)n1-2 [JQ1] + N=C(N)NC(=N)NCCc1ccccc1 [Phenformin] (partner 250 µM); 0.139

Please find the next molecule below.
Input: API: value(readout=relative viability, system=SW 900) for record Cc1sc2c(c1C)C(c1ccc(Cl)cc1)=N[C@@H](CC(=O)OC(C)(C)C)c1nnc(C)n1-2 [JQ1] + Nc1nc2[nH]cc(CCc3ccc(C(=O)N[C@@H](CCC(=O)O)C(=O)O)cc3)c2c(=O)[nH]1 [Pemetrexed] (partner 0.2 µM)
Output: 0.195

* * *

Field: relative viability. Provide a value for each of the compounds that follow.
tested on: NCI-H1299; experiment: relative viability (nuclei count vs DMSO), 5 days (fraction); higher = more cells survive; settings: first compound 0.08 µM
Give bare numbers.

Some compounds with recorded relative viability:
Cc1cnc(-c2cnc(NCCNc3ccc(C#N)cn3)nc2-c2ccc(Cl)cc2Cl)[nH]1 + CC(C)C[C@H](NC(=O)[C@H](Cc1ccccc1)NC(=O)c1cnccn1)B(O)O [Bortezomib] (partner 0.002 µM); 1.05
Cc1cnc(-c2cnc(NCCNc3ccc(C#N)cn3)nc2-c2ccc(Cl)cc2Cl)[nH]1 + C[C@]1(O)C[C@@H](c2nc(-c3ccc4ccc(-c5ccccc5)nc4c3)c3c(N)nccn32)C1 [Linsitinib] (partner 1 µM); 0.882
Cc1cnc(-c2cnc(NCCNc3ccc(C#N)cn3)nc2-c2ccc(Cl)cc2Cl)[nH]1 + CS(=O)(=O)N1CCN(Cc2cc3nc(-c4cccc5[nH]ncc45)nc(N4CCOCC4)c3s2)CC1 [Pictilisib] (partner 1 µM); 0.822
Cc1cnc(-c2cnc(NCCNc3ccc(C#N)cn3)nc2-c2ccc(Cl)cc2Cl)[nH]1 + O=C(c1cc(Cc2n[nH]c(=O)c3ccccc23)ccc1F)N1CCN(C(=O)C2CC2)CC1 [Olaparib] (partner 8 µM); 0.953
O=c1[nH]c2ccccc2n1C1CCN(CCCC(c2ccc(F)cc2)c2ccc(F)cc2)CC1 [Pimozide] + C[C@@H](Oc1cc(-c2cnn(C3CCNCC3)c2)cnc1N)c1c(Cl)ccc(F)c1Cl [Crizotinib] (partner 1 µM); 0.955
O=c1[nH]c2ccccc2n1C1CCN(CCCC(c2ccc(F)cc2)c2ccc(F)cc2)CC1 [Pimozide] + C[C@]1(O)C[C@@H](c2nc(-c3ccc4ccc(-c5ccccc5)nc4c3)c3c(N)nccn32)C1 [Linsitinib] (partner 1 µM); 0.949

Dear colleague, could you please provide relative viability for the compounds listed below?
1. O=c1[nH]c2ccccc2n1C1CCN(CCCC(c2ccc(F)cc2)c2ccc(F)cc2)CC1 [Pimozide] + O=C(c1cc(Cc2n[nH]c(=O)c3ccccc23)ccc1F)N1CCN(C(=O)C2CC2)CC1 [Olaparib] (partner 8 µM)
2. O=c1[nH]c2ccccc2n1C1CCN(CCCC(c2ccc(F)cc2)c2ccc(F)cc2)CC1 [Pimozide] + Cc1nc(NC(=O)N2CCC[C@H]2C(N)=O)sc1-c1ccnc(C(C)(C)C(F)(F)F)c1 [Alpelisib] (partner 2 µM)
3. O=c1[nH]c2ccccc2n1C1CCN(CCCC(c2ccc(F)cc2)c2ccc(F)cc2)CC1 [Pimozide] + CS(=O)(=O)CCNCc1ccc(-c2ccc3ncnc(Nc4ccc(OCc5cccc(F)c5)c(Cl)c4)c3c2)o1 [Lapatinib] (partner 2 µM)

Output:
[0.983, 1.04, 0.977]

* * *

Kindly state relative viability for each of the entries shown.
tested on: NCI-H1793; test: relative viability (nuclei count vs DMSO), 5 days (fraction); higher = more cells survive; details: first compound 5 µM
Answers are plain numbers.

Batch: relative viability for all items listed.
1. O=C(O)CCCCC(CCSCc1ccccc1)SCc1ccccc1 (stereo not given) [CPI-613] + O=C(c1cc(Cc2n[nH]c(=O)c3ccccc23)ccc1F)N1CCN(C(=O)C2CC2)CC1 [Olaparib] (partner 8 µM)
2. O=C(O)CCCCC(CCSCc1ccccc1)SCc1ccccc1 (stereo not given) [CPI-613] + CCNC(=O)c1noc(-c2cc(C(C)C)c(O)cc2O)c1-c1ccc(CN2CCOCC2)cc1 [Luminespib] (partner 0.01 µM)

Output:
0.75
0.252

* * *

test system: RERF-LC-KJ; assay: relative viability (nuclei count vs DMSO), 5 days (fraction); higher = more cells survive; conditions: first compound 5 µM
For each of the molecules below, state its relative viability.
Numbers only.

Worked examples follow.
O=C(O)CCCCC(CCSCc1ccccc1)SCc1ccccc1 (stereo unspecified) [CPI-613] + Nc1ncn([C@H]2C[C@H](O)[C@@H](CO)O2)c(=O)n1 [Decitabine] (partner 2 µM); 0.663
O=C(O)CCCCC(CCSCc1ccccc1)SCc1ccccc1 (stereo unspecified) [CPI-613] + C[C@@H](Oc1cc(-c2cnn(C3CCNCC3)c2)cnc1N)c1c(Cl)ccc(F)c1Cl [Crizotinib] (partner 1 µM); 0.841
O=C(O)CCCCC(CCSCc1ccccc1)SCc1ccccc1 (stereo unspecified) [CPI-613] + N=C(N)NC(=N)NCCc1ccccc1 [Phenformin] (partner 250 µM); 0.42
O=C(O)CCCCC(CCSCc1ccccc1)SCc1ccccc1 (stereo unspecified) [CPI-613] + C[C@]1(O)C[C@@H](c2nc(-c3ccc4ccc(-c5ccccc5)nc4c3)c3c(N)nccn32)C1 [Linsitinib] (partner 1 µM); 0.878
O=C(O)CCCCC(CCSCc1ccccc1)SCc1ccccc1 (stereo unspecified) [CPI-613] + Nc1nc2[nH]cc(CCc3ccc(C(=O)N[C@@H](CCC(=O)O)C(=O)O)cc3)c2c(=O)[nH]1 [Pemetrexed] (partner 0.2 µM); 0.476

Okay, now this molecule:
Input: Recorded relative viability of O=C(O)CCCCC(CCSCc1ccccc1)SCc1ccccc1 (stereo unspecified) [CPI-613] + O=C(CCCCCCC(=O)Nc1ccccc1)NO [Vorinostat] (partner 1 µM) , please.
Output: 0.607

* * *

system: H3255; experiment: relative viability (nuclei count vs DMSO), 5 days (fraction); higher = more cells survive; details: first compound 0.8 µM
Param label: returns 1 when relative viability < 0.8, returns 0 otherwise, including exact equality.

Here's what some known entries look like.
Cc1cnc(-c2cnc(NCCNc3ccc(C#N)cn3)nc2-c2ccc(Cl)cc2Cl)[nH]1 + Nc1nc2[nH]cc(CCc3ccc(C(=O)N[C@@H](CCC(=O)O)C(=O)O)cc3)c2c(=O)[nH]1 [Pemetrexed] (partner 0.2 µM); 1
O=c1[nH]c2ccccc2n1C1CCN(CCCC(c2ccc(F)cc2)c2ccc(F)cc2)CC1 [Pimozide] + C[C@@H](Oc1cc(-c2cnn(C3CCNCC3)c2)cnc1N)c1c(Cl)ccc(F)c1Cl [Crizotinib] (partner 1 µM); 1
Cc1cnc(-c2cnc(NCCNc3ccc(C#N)cn3)nc2-c2ccc(Cl)cc2Cl)[nH]1 + NC(=O)Nc1cc(-c2cccc(F)c2)sc1C(=O)N[C@H]1CCCNC1 [AZD7762] (partner 0.2 µM); 0
Cc1cnc(-c2cnc(NCCNc3ccc(C#N)cn3)nc2-c2ccc(Cl)cc2Cl)[nH]1 + CCNC(=O)c1noc(-c2cc(C(C)C)c(O)cc2O)c1-c1ccc(CN2CCOCC2)cc1 [Luminespib] (partner 0.01 µM); 0
O=c1[nH]c2ccccc2n1C1CCN(CCCC(c2ccc(F)cc2)c2ccc(F)cc2)CC1 [Pimozide] + CS(=O)(=O)CCNCc1ccc(-c2ccc3ncnc(Nc4ccc(OCc5cccc(F)c5)c(Cl)c4)c3c2)o1 [Lapatinib] (partner 2 µM); 1
Cc1cnc(-c2cnc(NCCNc3ccc(C#N)cn3)nc2-c2ccc(Cl)cc2Cl)[nH]1 + COc1cc2c(Oc3ccc(NC(=O)C4(C(=O)Nc5ccc(F)cc5)CC4)cc3F)ccnc2cc1OCCCN1CCOCC1 [Foretinib] (partner 0.25 µM); 0

Input: Quick check: relative viability of O=c1[nH]c2ccccc2n1C1CCN(CCCC(c2ccc(F)cc2)c2ccc(F)cc2)CC1 [Pimozide] + Nc1nc2[nH]cc(CCc3ccc(C(=O)N[C@@H](CCC(=O)O)C(=O)O)cc3)c2c(=O)[nH]1 [Pemetrexed] (partner 0.2 µM) under 0.8?
Output: 1

* * *

Hi there, I'd appreciate the recorded relative viability for every entry that follows.
test system: NCI-H322M; assay: relative viability (nuclei count vs DMSO), 5 days (fraction); higher = more cells survive; conditions: first compound 2.53 µM
One number for each entry.

Consider the worked cases shown below.
O=c1[nH]c2ccccc2n1C1CCN(CCCC(c2ccc(F)cc2)c2ccc(F)cc2)CC1 [Pimozide] + N=C(N)NC(=N)NCCc1ccccc1 [Phenformin] (partner 250 µM); 0.816
Cc1cnc(-c2cnc(NCCNc3ccc(C#N)cn3)nc2-c2ccc(Cl)cc2Cl)[nH]1 + Cc1nc(NC(=O)N2CCC[C@H]2C(N)=O)sc1-c1ccnc(C(C)(C)C(F)(F)F)c1 [Alpelisib] (partner 2 µM); 0.733
Cc1cnc(-c2cnc(NCCNc3ccc(C#N)cn3)nc2-c2ccc(Cl)cc2Cl)[nH]1 + CC(C)C[C@H](NC(=O)[C@H](Cc1ccccc1)NC(=O)c1cnccn1)B(O)O [Bortezomib] (partner 0.002 µM); 1.31
O=c1[nH]c2ccccc2n1C1CCN(CCCC(c2ccc(F)cc2)c2ccc(F)cc2)CC1 [Pimozide] + CCNC(=O)c1noc(-c2cc(C(C)C)c(O)cc2O)c1-c1ccc(CN2CCOCC2)cc1 [Luminespib] (partner 0.01 µM); 0.942

Input: GET /values?readout=relative viability&item= O=c1[nH]c2ccccc2n1C1CCN(CCCC(c2ccc(F)cc2)c2ccc(F)cc2)CC1 [Pimozide] + CS(=O)(=O)N1CCN(Cc2cc3nc(-c4cccc5[nH]ncc45)nc(N4CCOCC4)c3s2)CC1 [Pictilisib] (partner 1 µM)
Output: 0.482
